src = the supplement of paper PMC9170038

tested on: MS2 coat protein; assay: apparent KD of MS2 coat protein; designed switch direction (-1 OFF switch, 1 ON switch): -1; higher = weaker reporter binding; conditions: input ligand: FMN 200 uM
ENDPOINT: apparent KD of MS2 coat protein (nM)
Your answer should be a plain number; it is taken to be in nM.

{"columns": ["CHAIN_SEQUENCE", "VALUE_UNIT", "apparent KD of MS2 coat protein"],
 "data": [
  ["AUUAUGUUAGGAUAUGCUUAUGGUGGAUAGUCCAAUGUGGUGCAGAAGGGACAUGAGGAUCACCCAUGUGCUGA [EX4 #30] (Eterna round: R97, puzzle: Exclusion 4)", "nM", 92.3]
]}

For GACGUGUAAGGAUAUGAUGUUGCAAACAAGACCCUUAAUCAUUAGAAGGUACAUGAGGAUCACCCAUGUAGGGU [Eternabot (L2) Solution 100] (Eterna round: R97, puzzle: Exclusion 4) , write its apparent KD of MS2 coat protein.
129
